# tested_target: Tubulin
# method_summary: Inhibition of tubulin assembly (unknown origin) preincubated for 15 mins followed by GTP addition measured after 20 mins by turbidimetric analysis
measured_metric: IC50 (nM)

- smiles: "COc1ccc2c(c1)CCCN2c1cc(Br)cc(C(=O)NC2CC2)c1"
  units_of_measure: "nM"
  val: 1000
- smiles: "CNc1nc(N2CCCc3cc(OC)ccc32)c2ccccc2n1"
  units_of_measure: "nM"
  val: 920
- smiles: "COc1ccc2c(c1)CCCN2c1nc(Cl)nc2ccccc12"
  units_of_measure: "nM"
  val: 930
- smiles: "COc1ccc(N(C)c2cc(Br)cc(C(=O)NC3CC3)c2)cc1"
  units_of_measure: "nM"
  val: 1600
- smiles: "COc1ccc2c(c1)CCCN2c1cc(C)nc2ccccc12"
  units_of_measure: "nM"
  val: 1000

a = CNC(=O)c1cc(Br)cc(N(C)c2ccc(OC)cc2)c1
b = COc1ccc2c(c1)CCCN2c1nc(C)nc2ccccc12
q: Which gives the smaller IC50 number: a or b ? Mark your selection by writing its label.
a: b

====

# method_summary: […] partition coefficient, log P of the compound at pH 7.4 after 24 hrs by HPLC analysis
# Assay type: physicochemical
measured_metric: logD at 24 h

- smiles: "COc1ccc2c(c1)CCCN2c1nc(Cl)nc2ccccc12"
  measured_metric: "logD at 24 h"
  val: 4.13
- smiles: "CNC(=O)c1cc(Br)cc(N(C)c2ccc(OC)cc2)c1"
  measured_metric: "logD at 24 h"
  val: 4.02
- smiles: "COc1ccc2c(c1)CCCN2c1nc(C)nc2ccccc12"
  measured_metric: "logD at 24 h"
  val: 3.65

a = COc1ccc2c(c1)CCCN2c1cc(C)nc2ccccc12
b = CNc1nc(N2CCCc3cc(OC)ccc32)c2ccccc2n1
q: Which gives the smaller logD at 24 h number: a or b ? Mark your selection by writing its label.
a: b
(b: 1.07, a: 3.98)

====

# tested_target: Tubulin (Homo sapiens) (UniProt P68371+Q9H4B7+P0DPH7+P68366+Q13509+Q71U36+P04350+Q3ZCM7+P07437+P68363+Q9BQE3+Q6PEY2+Q13885+Q9BVA1+Q9BUF5)
# method_summary: Competitive inhibition of [3H]colchicine binding to tubulin (unknown origin) at 5 uM after 10 mins by radioligand displacement assay
# Format: protein-complex assay
measured_metric: inhibition (%)

- smiles: "COc1ccc2c(c1)CCCN2c1cc(C)nc2ccccc12"
  measured_metric: "inhibition"
  val: 87
- smiles: "CNc1nc(N2CCCc3cc(OC)ccc32)c2ccccc2n1"
  measured_metric: "inhibition"
  val: 95
- smiles: "COc1ccc2c(c1)CCCN2c1cc(Br)cc(C(=O)NC2CC2)c1"
  measured_metric: "inhibition"
  val: 75
- smiles: "COc1ccc2c(c1)CCCN2c1nc(Cl)nc2ccccc12"
  measured_metric: "inhibition"
  val: 99
- smiles: "COc1ccc2c(c1)CCCN2c1nc(C)nc2ccccc12"
  measured_metric: "inhibition"
  val: 98
- smiles: "CNC(=O)c1cc(Br)cc(N(C)c2ccc(OC)cc2)c1"
  measured_metric: "inhibition"
  val: 71
- smiles: "COc1ccc(N(C)c2cc(Br)cc(C(=O)NC3CC3)c2)cc1"
  measured_metric: "inhibition"
  val: 69

====

# System: A549
# method_summary: Cytotoxicity against human A549 cells by SRB method
# Assay type: functional
Reported values of GI50 for individual entries
Give just the number in nM; leave the unit off.

- smiles: "COc1ccc(N(C)c2cc(Br)cc(C(=O)N(C)C)c2)cc1"
  GI50 / nM: 2830

q: Which GI50 is reported for this molecule? `COC(=O)c1ccc(Cl)cc1N(C)c1ccc(OC)cc1`
a: 3360

q: Can you check `CNC(=O)c1cc(Cl)cc(N(C)c2ccc(OC)cc2)c1` next?
a: 270

q: Can you check `CNC(=O)c1cc(Cl)cc(N2CCCc3cc(OC)ccc32)c1` next?
a: 740

q: Can you check `COc1ccc2c(c1)CCCN2c1cccc2ccccc12` next?
a: 17800

====

# method_summary: Aqueous solubility of the compound at pH 7.4 after 4 hrs by HPLC-UV method
# Assay type: physicochemical
# condition_notes: buffer, pH 7.4, 4 h
measured_metric: solubility (µg/mL)

Known solubility results, listed for orientation:
- smiles: "COc1ccc2c(c1)CCCN2c1cc(C)nc2ccccc12"
  solubility [µg/mL]: 3.21
- smiles: "CNc1nc(N2CCCc3cc(OC)ccc32)c2ccccc2n1"
  solubility [µg/mL]: 7.21

1 = COc1ccc2c(c1)CCCN2c1nc(C)nc2ccccc12
2 = CNC(=O)c1cc(Br)cc(N(C)c2ccc(OC)cc2)c1
q: Which gives the smaller solubility number: 1 or 2 ? Mark your selection by writing its label.
a: 2

1 = COc1ccc(N(C)c2cc(Br)cc(C(=O)NC3CC3)c2)cc1
2 = COc1ccc2c(c1)CCCN2c1cc(Br)cc(C(=O)NC2CC2)c1
q: // compare measured solubility, left 1 , right 2 , return larger Mark your selection by writing its label.
a: 2

====

# tested_target: Tubulin (Homo sapiens) (UniProt P68371+Q9H4B7+P0DPH7+P68366+Q13509+Q71U36+P04350+Q3ZCM7+P07437+P68363+Q9BQE3+Q6PEY2+Q13885+Q9BVA1+Q9BUF5)
# method_summary: Competitive inhibition of [3H]colchicine binding to tubulin (unknown origin) at 1 uM after 10 mins by radioligand displacement assay
# Type: protein-complex assay
measured_metric: inhibition (%)

Known inhibition results, listed for orientation:
- smiles: "COc1ccc2c(c1)CCCN2c1nc(Cl)nc2ccccc12"
  units_of_measure: "%"
  val: 95
- smiles: "CNc1nc(N2CCCc3cc(OC)ccc32)c2ccccc2n1"
  units_of_measure: "%"
  val: 76

A = COc1ccc2c(c1)CCCN2c1cc(C)nc2ccccc12
B = COc1ccc2c(c1)CCCN2c1nc(C)nc2ccccc12
q: // compare measured inhibition, left A , right B , return larger Mark your selection by writing its label.
a: B
(B: 89%, A: 61%)

====

Reported values of GI50 for individual entries
# Tested on: KB
# method_summary: Cytotoxicity against human KB cells by SRB method
# Type: functional
Give just the number in µM; leave the unit off.

- compound: "COC(=O)c1ccc(Cl)cc1N(C)c1ccc(OC)cc1"
  GI50, µM: 1.98
- compound: "CNC(=O)c1cc(Br)cc(N(C)c2ccc(OC)cc2)c1"
  GI50, µM: 0.21
- compound: "CNC(=O)c1cc(Cl)cc(N(C)c2ccc(OC)cc2)c1"
  GI50, µM: 0.3
- compound: "CC(=O)O[C@H]1C(=O)[C@@]2(C)[C@H]([C@H](OC(=O)c3ccccc3)[C@]3(O)C[C@H](OC(=O)[C@H](O)[C@@H](NC(=O)c4ccccc4)c4ccccc4)C(C)=C1C3(C)C)[C@]1(OC(C)=O)CO[C@@H]1C[C@@H]2O [PACLITAXEL]"
  GI50, µM: 0.0064
- compound: "COC(=O)c1cc(Cl)cc(N(C)c2ccc(OC)cc2)c1"
  GI50, µM: 1.61

q: Which GI50 is reported for this compound? `COc1ccc(N(C)c2cc(Br)cc(C(=O)NC3CCCC3)c2)cc1`
a: 0.12

q: Can you check `CNc1nc(N2CCCc3cc(OC)ccc32)c2ccccc2n1` next?
a: 0.025

====

# Tested on: KB
# method_summary: Cytotoxicity against human KB cells by SRB method
# Format: functional
Reported values of GI50 for individual entries
Give just the number in nM; leave the unit off.

- smiles: "CNC(=O)c1cc(Br)cc(N2CCCc3cc(OC)ccc32)c1"
  tested_target: "KB"
  units_of_measure: "nM"
  GI50: 630
- smiles: "COc1ccc2c(c1)CCCN2c1nc(C)nc2ccccc12"
  tested_target: "KB"
  units_of_measure: "nM"
  GI50: 11

q: Which GI50 is reported for this compound? `COc1ccc(N(C)c2cc(Br)cc(C(=O)NC3CC3)c2)cc1`
a: 170

q: Can you check `COc1ccc(N(C)c2cc(Br)cc(C(=O)N(C)C)c2)cc1` next?
a: 6520

q: Can you check `COc1ccc2c(c1)CCCN2c1cc(C)nc2ccccc12` next?
a: 91

====

Reported values of GI50 for individual entries
# Test system: A549
# method_summary: Cytotoxicity against human A549 cells by SRB method
# Format: functional
Give just the number in µM; leave the unit off.

Known GI50 results, listed for orientation:
- smiles: "COc1ccc2c(c1)CCCN2c1nc(C)nc2ccccc12"
  GI50 (µM): 0.018
- smiles: "COc1ccc2c(c1)CCCN2c1cc(Br)cc(C(=O)NC2CC2)c1"
  GI50 (µM): 0.17
- smiles: "COC(=O)c1cc(N(C)c2ccc(OC)cc2)cc(C(F)(F)F)c1"
  GI50 (µM): 15.1
- smiles: "COCc1ccc(Cl)cc1N(C)c1ccc(OC)cc1"
  GI50 (µM): 4.53
- smiles: "COC(=O)c1cc(Br)cc(N(C)c2ccc(OC)cc2)c1"
  GI50 (µM): 1.24

q: Which GI50 is reported for this compound? `COC(=O)c1cc(Br)cc(N2CCCc3cc(OC)ccc32)c1`
a: 1.12

q: Can you check `COc1ccc2c(c1)CCCN2c1cc(C)nc2ccccc12` next?
a: 0.045

q: Can you check `CNC(=O)c1ccc(Cl)cc1N(C)c1ccc(OC)cc1` next?
a: 43.2

q: Can you check `CNc1nc(N2CCCc3cc(OC)ccc32)c2ccccc2n1` next?
a: 0.027

q: Can you check `COc1ccc(N(C)c2cc(Cl)ccc2CO)cc1` next?
a: 21.7

q: Can you check `COC(=O)c1cc(Cl)cc(N(C)c2ccc(OC)cc2)c1` next?
a: 1.6

q: Can you check `CC(=O)O[C@H]1C(=O)[C@@]2(C)[C@H]([C@H](OC(=O)c3ccccc3)[C@]3(O)C[C@H](OC(=O)[C@H](O)[C@@H](NC(=O)c4ccccc4)c4ccccc4)C(C)=C1C3(C)C)[C@]1(OC(C)=O)CO[C@@H]1C[C@@H]2O` next?
a: 0.0076

q: Can you check `COC(=O)c1cc(Cl)cc(N2CCCc3cc(OC)ccc32)c1` next?
a: 2.23

q: Can you check `COC(=O)c1ccc(Cl)nc1N(C)c1ccc(OC)cc1` next?
a: 0.23

q: Can you check `CNC(=O)c1cc(Br)cc(N2CCCc3cc(OC)ccc32)c1` next?
a: 0.37

q: Can you check `CNC(=O)c1cc(Br)cc(N(C)c2ccc(OC)cc2)c1` next?
a: 0.25

q: Can you check `CNC(=O)c1cc(N(C)c2ccc(OC)cc2)cc(C(F)(F)F)c1` next?
a: 14.7
